- EXPERIMENTAL_TARGET: T1, PUF4 RNA-binding domain (Saccharomyces cerevisiae, UniProt P25339 537-888)
- T1 sequence: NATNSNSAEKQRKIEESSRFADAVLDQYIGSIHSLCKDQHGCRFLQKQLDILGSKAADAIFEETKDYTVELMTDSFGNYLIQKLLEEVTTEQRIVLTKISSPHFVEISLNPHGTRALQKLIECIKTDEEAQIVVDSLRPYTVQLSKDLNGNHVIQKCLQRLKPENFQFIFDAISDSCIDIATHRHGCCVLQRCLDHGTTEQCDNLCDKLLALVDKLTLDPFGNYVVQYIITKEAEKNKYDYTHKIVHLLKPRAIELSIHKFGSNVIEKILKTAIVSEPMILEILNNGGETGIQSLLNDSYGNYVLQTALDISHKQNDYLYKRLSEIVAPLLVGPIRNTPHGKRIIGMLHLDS
- ASSAY_PROTOCOL: Mg; RNA-MaP; 20 mM Na-HEPES pH 7.4, 30 mM KOAc, 0.75 mM MgCl2, 0.1% Tween-20, 5% glycerol, 0.1 mg/mL BSA, 2 mM DTT; 25 C; 0.0125-409.6 nM protein
- CONDITION_PARAMETERS: tags: N-His6-TEV cleaved; C-SNAP kept, Cy3B-labelled; label: tethered on chip by stalled RNA polymerase
MEASURED_QUANTITY: pKd
Convention used: pKd is expressed as -log10 of the molar concentration.

Below are worked cases with known answers.
{"columns": ["BINDER", "pKd"],
 "data": [
  ["UCUCUUUGUACGAACCUCUCUU (ssRNA) [Ic_S1_P5E.1_K5.1_C5.1_H5.1_A5.1_[T5C]_[T6G]_F5.1_[T8A]_[T9C]_[A10C]_T5.1]", 5.77],
  ["Ic_S4_P4E.1_K4.1_C4.1_H4.1_A4.1_[T5G]_[A6T]_[T7A]_F4.1_[T8C]_[A9G]_T4.1 (ssRNA) RNA: UUUGACAACUGAUCGUUCUUUCUUGUAGUACGUUCUUUCUCGAUCAGUUGUCUUU", 6.16]
]}

QUERY: Dear colleague, I am looking for the recorded pKd of the following binder: Id_ii_S2_P5E.2_K5.1_C5.2_[T-1A]_H5.1_A5.1_F5.1_T5.2_[T11A]_[A12T] (ssRNA) RNA: UUUGAUUAAUAUGAUAUCGUUCUUUCUCAUGUAUUAUUAAUUUCUUUCUCGAUAUCAUAUUAAUCUUU
RESULT: 8.37

QUERY: Dear colleague, I am looking for the recorded pKd of the following binder: UCUCUUUUUGUAUAUAAGUCUCUU (ssRNA) [Id_ii_S1_P3E.2_K3.1_C3.2_[C-2T]_H3.1_A3.1_F3.1_T3.2_[T9A]_[A10G]]
RESULT: 7.94

QUERY: Dear colleague, I am looking for the recorded pKd of the following binder: UCUCUUUCCCUGUAUUAUUAUCUCUU (ssRNA) [Ie_S1_P5E.1_K5.1_C5.1_H5.1_[+1CCCT]_A5.1_F5.1_T5.1]
RESULT: 8.23
